The values you see were collected from patent US8158628B2.

Molecular target: B1R of the rat (Rattus norvegicus, UniProt P97583)
Construct: expressed in transfected cells; host or cells: CHO K1 cells (Chinese hamster ovary), stably transfected
Sequence (P97583 1-337): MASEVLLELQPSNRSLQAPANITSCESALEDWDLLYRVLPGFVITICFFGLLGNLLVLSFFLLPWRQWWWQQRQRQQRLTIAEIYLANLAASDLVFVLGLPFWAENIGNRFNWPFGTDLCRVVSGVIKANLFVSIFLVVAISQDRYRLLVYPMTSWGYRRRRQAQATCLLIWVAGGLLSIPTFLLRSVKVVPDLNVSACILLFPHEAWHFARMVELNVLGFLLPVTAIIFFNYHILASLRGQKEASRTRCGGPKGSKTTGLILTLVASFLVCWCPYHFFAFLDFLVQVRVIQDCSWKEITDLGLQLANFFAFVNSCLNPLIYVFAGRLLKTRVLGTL
Experiment: FLIPR Ca2+ functional assay, B1R antagonism, rat B1R in CHO K1 cells
Format: cell-based
Details: test substance 10 μM; rB1R CHO K1 cells; agonist Des-Arg9 bradykinin at EC80; % of maximum achievable inhibition
Outcome: true (1) for inhibition at 10 µM of at least 20%; false (0) for anything lower.

[[record]]
compound = "O=C(CC1c2cccn2CCN1S(=O)(=O)c1ccccc1)N1CCC(N2CCCC2)CC1 (stereo not drawn)"
label_class = "false (0)"

[[record]]
compound = "COc1cc(C)c(S(=O)(=O)N2CCn3cccc3C2COCC(=O)N2CCC(Oc3ccncc3)CC2)c(C)c1 (stereo not drawn)"
label_class = "true (1)"

[[record]]
compound = "Cc1ccc(S(=O)(=O)N2CCn3cccc3C2CC(=O)NC2CCCc3cc(CNCc4ccccc4)ccc32)cc1 (stereo not drawn)"
label_class = "true (1)"

[[record]]
compound = "COc1cc(C)c(S(=O)(=O)N2CCn3cccc3C2CC(=O)N2CCCCCC2c2ccc(N(C)C)cc2)c(C)c1 (stereo not drawn)"
label_class = "false (0)"

[[record]]
compound = "Cc1ccc(S(=O)(=O)N2CCn3cccc3C2CC(=O)NC2CCc3cc(CN4CCCC4)ccc3C2)cc1 (stereo not drawn)"
label_class = "true (1)"

[[record]]
compound = "CC1CCCC(C)N1CCCNC(=O)CC1c2cccn2CCN1S(=O)(=O)c1cccc(C(F)(F)F)c1 (stereo not drawn)"
label_class = "false (0)"


###

molecular target: B1R of the rat (Rattus norvegicus, UniProt P97583); construct: expressed in transfected cells; host or cells: CHO K1 cells (Chinese hamster ovary), stably transfected; assay: FLIPR Ca2+ functional assay, B1R antagonism, rat B1R in CHO K1 cells; type: cell-based; settings: test substance 10 μM; rB1R CHO K1 cells; agonist Des-Arg9 bradykinin at EC80; % of maximum achievable inhibition
# key: entry, value: inhibition at 10 µM
TEST READOUT: inhibition at 10 µM

[[record]]
compound = "COc1cc(C)c(S(=O)(=O)N2CCn3cccc3C2COCC(=O)N2CCC(CN3CCN(C)CC3)C2)c(C)c1 (stereo not shown)"
test_readout = "inhibition at 10 µM"
obs_value = "104%"

[[record]]
compound = "Cc1cccc(Cl)c1S(=O)(=O)N1CCn2cccc2C1COCC(=O)N1CCC2(CC1)CCN(c1ccncc1)CC2 (stereo not shown)"
test_readout = "inhibition at 10 µM"
obs_value = "98.3%"

[[record]]
compound = "CNCc1ccc2c(c1)CCC(NC(=O)CC1c3cccn3CCN1S(=O)(=O)c1cccc(C(F)(F)F)c1)C2 (stereo not shown)"
test_readout = "inhibition at 10 µM"
obs_value = "103%"

[[record]]
compound = "COc1cc(C)c(S(=O)(=O)N2CCn3cccc3C2CC(=O)NCCCN2CCOCC2)c(C)c1 (stereo not shown)"
test_readout = "inhibition at 10 µM"
obs_value = "37.9%"


###

Target: B1R of the rat (Rattus norvegicus, UniProt P97583)
Construct: expressed in transfected cells; host or cells: CHO K1 cells (Chinese hamster ovary), stably transfected
Sequence (P97583 1-337): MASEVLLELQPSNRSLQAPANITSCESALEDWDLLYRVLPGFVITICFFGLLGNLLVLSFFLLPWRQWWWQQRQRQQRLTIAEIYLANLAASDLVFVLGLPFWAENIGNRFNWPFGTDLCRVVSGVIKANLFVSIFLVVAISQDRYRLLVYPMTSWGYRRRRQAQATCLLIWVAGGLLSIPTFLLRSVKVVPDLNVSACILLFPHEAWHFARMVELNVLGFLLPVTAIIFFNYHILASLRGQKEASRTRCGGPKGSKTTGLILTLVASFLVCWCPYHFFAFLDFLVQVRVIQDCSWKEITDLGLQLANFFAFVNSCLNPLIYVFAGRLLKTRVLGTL
Test: FLIPR Ca2+ functional assay, B1R antagonism, rat B1R in CHO K1 cells
Format: cell-based
Details: test substance 10 μM; rB1R CHO K1 cells; agonist Des-Arg9 bradykinin at EC80; % of maximum achievable inhibition
TEST READOUT: inhibition at 10 µM (%)

[[record]]
compound = "Cc1ccc(S(=O)(=O)N2CCn3cccc3C2CC(=O)NC2CCCc3cc(CN4CCOCC4)ccc32)cc1 (centres unmarked)"
obs_value = 100

[[record]]
compound = "CNCc1ccc2c(c1)CCCC2NC(=O)CC1c2cccn2CCN1S(=O)(=O)c1ccc(C)c(Cl)c1 (centres unmarked)"
obs_value = -29.2

[[record]]
compound = "COc1ccc2cc(S(=O)(=O)N3CCn4cccc4C3CC(=O)N[C@@H]3CCCc4cc(CN5CCCCC5)ccc43)ccc2c1 (some centres unmarked)"
obs_value = 103

[[record]]
compound = "Cc1cccc(Cl)c1S(=O)(=O)N1CCn2cccc2C1CC(=O)NCCCN1C(C)CCCC1C (centres unmarked)"
obs_value = 61.5

[[record]]
compound = "O=C(CC1c2cccn2CCN1S(=O)(=O)c1cccc(C(F)(F)F)c1)NC1CCCc2cc(CN3CCCCC3)ccc21 (centres unmarked)"
obs_value = 99.1

[[record]]
compound = "COc1cc(C)c(S(=O)(=O)N2CCn3cccc3C2CC(=O)N2CCN(CCO)CC2)c(C)c1 (centres unmarked)"
obs_value = 9.05

[[record]]
compound = "CNCc1ccc2c(c1)CCC(NC(=O)CC1c3cccn3CCN1S(=O)(=O)c1ccc(C)c(Cl)c1)C2 (centres unmarked)"
obs_value = 103

[[record]]
compound = "CN(CCC1CCN(c2ccncc2)CC1)C(=O)COCC1c2cccn2CCN1S(=O)(=O)c1ccccc1C(F)(F)F (centres unmarked)"
obs_value = 99.3

[[record]]
compound = "COc1cc(C)c(S(=O)(=O)N2CCn3cccc3C2CC(=O)N2CCN(c3ccc(C(F)(F)F)cn3)CC2)c(C)c1 (centres unmarked)"
obs_value = 50.9

[[record]]
compound = "COc1cc(C)c(S(=O)(=O)N2CCn3cccc3C2CC(=O)N2CCCCC2Cc2ccncc2)c(C)c1 (centres unmarked)"
obs_value = -21.5

[[record]]
compound = "O=C(CC1c2cccn2CCN1S(=O)(=O)c1cccc(C(F)(F)F)c1)N1CCC(N2CCCCC2)CC1 (centres unmarked)"
obs_value = -2.25

[[record]]
compound = "CCN1CCN(C(=O)CC2c3cccn3CCN2S(=O)(=O)c2ccccc2)CC1 (centres unmarked)"
obs_value = 9.74

[[record]]
compound = "Cc1ccc(S(=O)(=O)N2CCn3cccc3C2CC(=O)NC2CCc3cc(CN(C)C)ccc3C2)cc1 (centres unmarked)"
obs_value = 103

[[record]]
compound = "O=C(CC1c2cccn2CCN1S(=O)(=O)c1ccccc1)N1CCN(c2ccc(C(F)(F)F)cn2)CC1 (centres unmarked)"
obs_value = 56.1

[[record]]
compound = "CN(C)Cc1ccc2c(c1)CCCC2NC(=O)CC1c2cccn2CCN1S(=O)(=O)c1cccc(C(F)(F)F)c1 (centres unmarked)"
obs_value = 97.3

[[record]]
compound = "COc1cc(C)c(S(=O)(=O)N2CCn3cccc3C2CC(=O)N2CCC(O)(c3cccnc3)CC2)c(C)c1 (centres unmarked)"
obs_value = 37.8

[[record]]
compound = "CNCc1ccc2c(c1)CCC(NC(=O)CC1c3cccn3CCN1S(=O)(=O)c1ccc3cc(OC)ccc3c1)C2 (centres unmarked)"
obs_value = 104

[[record]]
compound = "COc1ccc2cc(S(=O)(=O)N3CCn4cccc4C3CC(=O)NC3CCCc4cc(CN5CCCc6ccccc65)ccc43)ccc2c1 (centres unmarked)"
obs_value = 98.8

[[record]]
compound = "Cc1ccc(S(=O)(=O)N2CCn3cccc3C2CC(=O)NC2CCc3cc(CN4CCOCC4)ccc3C2)cc1Cl (centres unmarked)"
obs_value = 100

[[record]]
compound = "O=C(CC1c2cccn2CCN1S(=O)(=O)c1ccccc1)NC1CCc2cc(CN3CCCCC3)ccc2C1 (centres unmarked)"
obs_value = 102

[[record]]
compound = "COc1ccc2cc(S(=O)(=O)N3CCn4cccc4C3CC(=O)NC3CCc4cc(CN5CCOCC5)ccc4C3)ccc2c1 (centres unmarked)"
obs_value = 102

[[record]]
compound = "Cc1ccc(S(=O)(=O)N2CCn3cccc3C2CC(=O)N[C@@H]2CCCc3cc(CNC(C)(C)C)ccc32)cc1 (some centres unmarked)"
obs_value = 107

[[record]]
compound = "Cc1ccc(S(=O)(=O)N2CCn3cccc3C2CC(=O)NC2CCc3cc(CN4CCCCC4)ccc3C2)cc1 (centres unmarked)"
obs_value = 102

[[record]]
compound = "CN(Cc1ccc2c(c1)CCCC2NC(=O)CC1c2cccn2CCN1S(=O)(=O)c1cccc(C(F)(F)F)c1)C(C)(C)C (centres unmarked)"
obs_value = 97.1

[[record]]
compound = "COc1cc(C)c(S(=O)(=O)N2CCn3cccc3C2COCC(=O)N2[C@@H]3CC[C@H]2C[C@H](Oc2ccncc2)C3)c(C)c1 (some centres unmarked)"
obs_value = 108

[[record]]
compound = "Cc1ccc(S(=O)(=O)N2CCn3cccc3C2CC(=O)NC2CCCc3cc(CNC(C)(C)C)ccc32)cc1Cl (centres unmarked)"
obs_value = 102

[[record]]
compound = "CN1CCN(Cc2ccc3c(c2)CCCC3NC(=O)CC2c3cccn3CCN2S(=O)(=O)c2cccc(C(F)(F)F)c2)CC1 (centres unmarked)"
obs_value = 76.2

[[record]]
compound = "COc1cc(C)c(S(=O)(=O)N2CCn3cccc3C2CC(=O)NCCCN2C(C)CCCC2C)c(C)c1 (centres unmarked)"
obs_value = 37.4

[[record]]
compound = "O=C(COCC1c2cccn2CCN1S(=O)(=O)c1ccccc1C(F)(F)F)N1CCC2(CC1)CCN(c1ccncc1)CC2 (centres unmarked)"
obs_value = 98.1

